target under test: 3-phosphoinositide-dependent protein kinase 1 (Homo sapiens) (UniProt O15530);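 further: values are mean inhibition of PDK1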
Sequence (O15530 whole entry): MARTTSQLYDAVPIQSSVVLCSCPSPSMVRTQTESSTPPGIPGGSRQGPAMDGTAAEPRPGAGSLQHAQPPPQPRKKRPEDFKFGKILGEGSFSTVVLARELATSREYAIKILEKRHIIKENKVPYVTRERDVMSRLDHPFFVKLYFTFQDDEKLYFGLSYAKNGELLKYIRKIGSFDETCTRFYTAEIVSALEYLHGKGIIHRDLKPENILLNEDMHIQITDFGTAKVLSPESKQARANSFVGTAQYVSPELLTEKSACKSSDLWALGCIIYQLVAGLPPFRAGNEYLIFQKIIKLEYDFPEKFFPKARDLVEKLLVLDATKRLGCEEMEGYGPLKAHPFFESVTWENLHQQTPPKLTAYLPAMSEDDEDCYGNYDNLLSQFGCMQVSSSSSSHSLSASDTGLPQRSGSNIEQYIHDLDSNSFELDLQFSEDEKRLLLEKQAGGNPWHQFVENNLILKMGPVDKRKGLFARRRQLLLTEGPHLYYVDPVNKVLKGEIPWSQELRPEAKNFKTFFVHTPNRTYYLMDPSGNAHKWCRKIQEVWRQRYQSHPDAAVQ
stated conditions: at 0.1 µM
quantity kind: inhibition (%)

>>> recorded_result("CCn1c(-c2nonc2N)nc2cncc(C(=O)N3CCNCC3)c21")
2.8
>>> recorded_result("COc1ccc(-c2coc3ncnc(N)c23)cc1")
0.68
>>> recorded_result("COc1ccc2cc(-c3c(-c4ccncc4)nc(-c4ccc([S+](C)[O-])cc4)n3C)ccc2c1 (centres undefined)")
0.4
>>> recorded_result("NC(=O)c1cccc(Nc2nccc(Nc3cccc4[nH]ncc34)n2)c1")
-1.42
>>> recorded_result("[O-][S+]1CCN(Cc2ccc(-c3ccc4ncnc(Nc5ccc(OCc6ccccc6)c(F)c5)c4c3)o2)CC1")
2.01
>>> recorded_result("Cn1cc(C=C2C(=O)Nc3cccnc32)c2ccccc21")
0.63
>>> recorded_result("COC(=O)Nc1nc2cc(Oc3ccc(NC(=O)Nc4cccc(C(=O)O)c4)cc3)ccc2[nH]1")
2.53
>>> recorded_result("O=C1NC(=O)C(c2ccc(Cl)cc2)=C1Nc1ccc(Cl)c(C(=O)O)c1")
0.12
>>> recorded_result("O=C1NC(=O)C(c2cccc(Cl)c2)=C1Nc1ccc(O)c(Cl)c1")
0.43
>>> recorded_result("COc1ccc(COc2ccc(Cc3cnc(N)nc3N)cc2OC)cc1")
1.69
>>> recorded_result("COc1cc2c(cc1Nc1nc(N3CCc4ccccc43)c3cc[nH]c3n1)N(C(=O)CN(C)C)CC2")
1.89
>>> recorded_result("COc1ccccc1Nc1ncc(-c2ccccc2)o1")
7.73
>>> recorded_result("Nc1nc(-c2ccccn2)c(-c2ccc3ncccc3n2)s1")
1.75
>>> recorded_result("CCc1cccc(NC(=O)Nc2ccc(Oc3ccc4nc(NC(=O)OC)[nH]c4c3)cc2)c1")
2.37
>>> recorded_result("CCCN1CCC=C(c2ccc(Nc3nc(Nc4ccccc4C(N)=O)c4cc[nH]c4n3)c(C)c2)C1")
-0.1
>>> recorded_result("Cc1nnc(-c2ccc(C)c(-c3ccc(C(=O)Nc4cccc(C#N)c4)cc3)c2)o1")
0.99
>>> recorded_result("CCN1CCC(CC(=O)Nc2n[nH]c3nc(-c4cccs4)c(Br)cc23)CC1")
-2.02
>>> recorded_result("CC(=O)Nc1cccc(C#Cc2cncnc2Nc2ccc(OCc3cccc(F)c3)c(Cl)c2)n1")
-0.76
>>> recorded_result("COc1ccc(-c2nn3ncccc3c2-c2ccnc(Nc3ccc(Cl)c(C(F)(F)F)c3)n2)cc1")
0.17
>>> recorded_result("NS(=O)(=O)c1cccc(-c2ccc3c(NC(=O)C4CC4)n[nH]c3c2)c1")
-1.98
>>> recorded_result("COc1cc2ncn(-c3cc(OCc4ccccc4Cl)c(C(N)=O)s3)c2cc1OC")
7.8
>>> recorded_result("CCn1c(-c2nonc2N)nc2c(N3CCCC3)nccc21")
-1.76
>>> recorded_result("COC(=O)Nc1nc2cc(Oc3cccc(NC(=O)Nc4cc(C(F)(F)F)ccc4F)c3)ccc2[nH]1")
1.08
>>> recorded_result("COc1cc(C)c(NC(=O)CN(C)C)cc1Nc1nc(Nc2cccc(F)c2C(N)=O)c2cc[nH]c2n1")
2.96
>>> recorded_result("COc1cc2ncn(-c3cc(O[C@H](C)c4ccccc4Cl)c(C(N)=O)s3)c2cc1OC")
2.16
>>> recorded_result("Cc1cccc(-c2n[nH]cc2-c2ccc3ncccc3n2)n1")
1.02
>>> recorded_result("Fc1cccc(COc2ccc(Nc3ncnc4cc(-c5ccc[nH]5)sc34)cc2Cl)c1")
1.86
>>> recorded_result("CCn1c(-c2nonc2N)nc2cnc(Oc3cccc(NC(=O)c4ccc(OCCN5CCOCC5)cc4)c3)cc21")
2.08
>>> recorded_result("CS(=O)(=O)CCNCc1ccc(-c2ccc3ncnc(Nc4ccc(OCc5ccccc5)c(Cl)c4)c3c2)o1")
-0.51
>>> recorded_result("CC1=C(C(=O)Nc2ccc3[nH]ncc3c2)C(c2ccc3ccccc3c2)CC(=O)N1 (centres undefined)")
2.2
>>> recorded_result("Cc1cc(O)cc(C)c1/C=C/c1cncc(-c2nn[nH]n2)c1")
2.02
>>> recorded_result("CS(=O)(=O)CCN(CC#N)Cc1ccc(-c2ccc3ncnc(Nc4ccc(OCc5cccc(F)c5)c(Cl)c4)c3c2)o1")
0.12
>>> recorded_result("NCc1ccc(-c2nc(-c3ccc(Cl)c(O)c3)c(-c3ccncc3)[nH]2)cc1")
2.25
>>> recorded_result("Cc1ccc(C(=O)NC2CCCCC2)cc1-c1ccc(C(=O)NCC2CC2)cc1")
3.8
>>> recorded_result("CCn1c(-c2nonc2N)nc2c(C#CC(C)(C)O)nc(CN3CCCC3)cc21")
0.46
>>> recorded_result("CCn1c(-c2nonc2N)nc2ccncc21")
2.45
>>> recorded_result("Cc1ccc(NC(=O)c2ccnc(N3CCCC3)c2)cc1-c1ccc(C(=O)NCC2CC2)cc1")
2.23
>>> recorded_result("CC1=C(C(=O)Nc2ccc3[nH]ncc3c2)C(c2ccc(F)cc2)NC(=O)N1 (centres undefined)")
0.63
>>> recorded_result("COc1cccc(-n2ncc3c(N/N=C/c4cccc(F)c4)ncnc32)c1")
1.33

Data origin, for the record: ChEMBL document CHEMBL1961873
